biological target: Protein kinase C eta type (Homo sapiens) (UniProt P24723); assay: Inhibition of N-terminal GST-fused PKCeta (1-683) expressed in baculovirus expression system at 30 uM after 1 hr by off-chip mobility shift assay relative to control
Sequence (P24723 whole entry, the tested form may be a part): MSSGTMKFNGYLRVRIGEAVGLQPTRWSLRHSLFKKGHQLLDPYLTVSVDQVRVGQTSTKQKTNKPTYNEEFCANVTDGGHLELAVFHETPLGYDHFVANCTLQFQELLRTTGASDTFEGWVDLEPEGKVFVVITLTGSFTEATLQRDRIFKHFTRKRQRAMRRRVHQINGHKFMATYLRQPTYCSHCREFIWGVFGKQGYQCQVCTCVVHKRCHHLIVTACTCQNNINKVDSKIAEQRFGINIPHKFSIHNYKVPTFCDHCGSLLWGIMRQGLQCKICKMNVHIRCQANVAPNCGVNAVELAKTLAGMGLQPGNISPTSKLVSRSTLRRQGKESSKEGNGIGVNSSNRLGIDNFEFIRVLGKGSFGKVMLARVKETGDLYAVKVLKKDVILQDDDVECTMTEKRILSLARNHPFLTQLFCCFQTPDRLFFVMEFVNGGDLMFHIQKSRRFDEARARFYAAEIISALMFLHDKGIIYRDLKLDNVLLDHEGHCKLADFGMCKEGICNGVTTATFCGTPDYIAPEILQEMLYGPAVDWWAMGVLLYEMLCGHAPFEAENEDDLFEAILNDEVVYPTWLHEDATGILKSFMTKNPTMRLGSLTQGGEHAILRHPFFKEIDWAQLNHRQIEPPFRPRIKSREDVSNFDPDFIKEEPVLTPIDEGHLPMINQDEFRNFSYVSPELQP
Entries and their measured inhibition follow.
Number in %, nothing else.

Observed inhibition, Protein kinase C eta type (Homo sapiens) (UniProt P24723), "CCCCCCCCCCCCC/C=C/[C@@H](O)[C@H](CO)N(C)C" : 43.8

inhibition of "CCCCCCCCCCCCCC[C@@H]1OC[C@@H](N)[C@@H]1O" , assay on Protein kinase C eta type (Homo sapiens) (UniProt P24723), is 47

Bench note, Protein kinase C eta type (Homo sapiens) (UniProt P24723): entry "CCCCCCCCCCCCCC[C@H]1OC[C@@H](N)[C@@H]1O" , its inhibition = 55.4

Entry "CCCCCCCCCCCCCC[C@@H]1OC[C@H](N)[C@@H]1O" , tested on Protein kinase C eta type (Homo sapiens) (UniProt P24723), has a reported inhibition of 56.6

* * *

Form field: inhibition (one value per entry).
molecular target: Protein kinase C delta type (Homo sapiens) (UniProt Q05655); experiment: Inhibition of N-terminal GST-fused PKCdelta (1-676) expressed in baculovirus expression system at 30 uM after 1 hr by off-chip mobility shift assay relative to control
Sequence (Q05655 whole entry, looked up, the tested form may be a part): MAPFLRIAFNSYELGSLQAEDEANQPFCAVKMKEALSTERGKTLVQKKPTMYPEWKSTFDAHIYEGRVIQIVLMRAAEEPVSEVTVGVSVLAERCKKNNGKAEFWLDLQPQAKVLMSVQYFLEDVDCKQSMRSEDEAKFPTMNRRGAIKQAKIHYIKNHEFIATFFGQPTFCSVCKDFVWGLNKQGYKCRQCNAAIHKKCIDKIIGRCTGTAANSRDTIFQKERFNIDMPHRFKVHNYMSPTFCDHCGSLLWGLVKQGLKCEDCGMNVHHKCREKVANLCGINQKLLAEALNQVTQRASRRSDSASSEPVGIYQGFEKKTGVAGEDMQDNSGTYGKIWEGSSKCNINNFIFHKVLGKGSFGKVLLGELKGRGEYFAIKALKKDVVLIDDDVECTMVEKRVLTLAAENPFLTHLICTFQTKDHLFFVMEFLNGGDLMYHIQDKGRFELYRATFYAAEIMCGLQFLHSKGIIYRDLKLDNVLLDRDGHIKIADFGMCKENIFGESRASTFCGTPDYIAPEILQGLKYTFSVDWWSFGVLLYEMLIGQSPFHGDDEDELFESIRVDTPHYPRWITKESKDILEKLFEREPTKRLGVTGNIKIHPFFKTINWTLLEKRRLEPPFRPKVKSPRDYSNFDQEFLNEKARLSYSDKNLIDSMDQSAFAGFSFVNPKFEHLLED
Use % as the unit, but write only the number.

Example entries and their recorded answers appear below.
> print(dat)
                               entry.smiles    quantity  value.unit  reading
1  CCCCCCCCCCCCCC[C@@H]1OC[C@@H](N)[C@@H]1O  inhibition           %     67.5
2  CCCCCCCCCCCCC/C=C/[C@@H](O)[C@H](CO)N(C)C  inhibition           %     83.9

response.value for "CCCCCCCCCCCCCC[C@H]1OC[C@@H](N)[C@@H]1O" (field: inhibition) = 96.2

Summary for this compound, "CCCCCCCCCCCCCC[C@@H]1OC[C@H](N)[C@@H]1O" : inhibition is 69.6

* * *

target: UniProt:P41743; assay: Inhibition of N-terminal GST-fused PKClota (1-587) expressed in baculovirus expression system at 30 uM after 1 hr by off-chip mobility shift assay relative to control
Sequence (P41743 whole entry, looked up, the tested form may be a part): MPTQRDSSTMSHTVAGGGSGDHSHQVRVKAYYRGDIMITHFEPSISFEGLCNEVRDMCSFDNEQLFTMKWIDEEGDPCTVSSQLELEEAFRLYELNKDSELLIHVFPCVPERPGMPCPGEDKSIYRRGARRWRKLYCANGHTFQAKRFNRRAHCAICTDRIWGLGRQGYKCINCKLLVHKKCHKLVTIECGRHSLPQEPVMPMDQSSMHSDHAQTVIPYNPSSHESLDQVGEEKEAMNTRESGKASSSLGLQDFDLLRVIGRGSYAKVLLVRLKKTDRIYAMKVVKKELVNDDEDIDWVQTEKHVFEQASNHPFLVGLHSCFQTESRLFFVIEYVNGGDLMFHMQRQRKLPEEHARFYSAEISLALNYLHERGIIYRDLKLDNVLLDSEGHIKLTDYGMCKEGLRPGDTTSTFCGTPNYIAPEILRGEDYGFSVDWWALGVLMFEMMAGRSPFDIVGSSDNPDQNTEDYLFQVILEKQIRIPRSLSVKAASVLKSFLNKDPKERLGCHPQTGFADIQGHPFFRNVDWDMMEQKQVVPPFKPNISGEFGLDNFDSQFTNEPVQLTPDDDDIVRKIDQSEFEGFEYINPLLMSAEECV
QUANTITY: inhibition (%)
State just the number; it will be interpreted in %.

Some solved entries appear below for comparison.
> print(dat)
                               entry.smiles  value.unit  reading
1   CCCCCCCCCCCCCC[C@H]1OC[C@@H](N)[C@@H]1O           %     99.9
2  CCCCCCCCCCCCCC[C@@H]1OC[C@@H](N)[C@@H]1O           %     94.8
3  CCCCCCCCCCCCC/C=C/[C@@H](O)[C@H](CO)N(C)C           %      100

Record "CCCCCCCCCCCCCC[C@@H]1OC[C@H](N)[C@@H]1O" ; system UniProt:P41743; inhibition = 98.5
